- test: Clearance in human liver microsomes at 1 umol/L by HPLC analysis
- Format: ADME
- condition context: read-out: CLH
Recorded measurements of microsomal CLint at 1 µM, one per entry
Value expressed in µL/min/mg; do not type the unit.

Query string: Consider the compound O=C(Nc1ccc(Oc2ccc3nc(NC(=O)C4CC4)cn3c2)c(F)c1)c1cccn(-c2ccccc2)c1=O and give its measured microsomal CLint at 1 µM.
Result string: 5

More entries:
Query string: Request the reported microsomal CLint at 1 µM associated with Cc1ccc(C(=O)Nc2ccc(Oc3ccc4nc(NC(=O)C5CC5)cn4c3)c(F)c2)c(=O)n1-c1ccccc1.Cl
Result string: 6

Query string: I would be grateful if you could share the reported microsomal CLint at 1 µM for Cc1ccc(C(=O)Nc2ccc(Oc3ccc4nc(NC(=O)C5CC5)cn4n3)c(F)c2)c(=O)n1-c1ccccc1 .
Result string: 11

Query string: I'd like to know its microsomal CLint at 1 µM. The compound in question is O=C(Nc1ccc(Oc2ccc3nc(NC(=O)C4CC4)cn3n2)c(F)c1)c1cccn(-c2ccccc2)c1=O
Result string: 3
